Tested on: H1a-luc or Zluc cells
experimental_protocol: in vitro
Format: cell-based, human
condition_description: Table 1B, cellular viability

[
  {
    "compound": "COC(=O)N[C@H](C(=O)N1CCC[C@H]1c1ncc(-c2ccc(-c3csc4c(-c5cnc([C@@H]6CCCN6C(=O)[C@H](NC(=O)OC)c6ccccc6)[nH]5)csc34)cc2)[nH]1)C(C)C [Compound A200]",
    "assayed_system": "H1a-luc or Zluc cells",
    "CC50": "> 75 µM"
  },
  {
    "compound": "COC(=O)N[C@H](C(=O)N1CCC[C@H]1c1nc2ccc(-c3cc4sc(-c5ccc(-c6c[nH]c([C@@H]7CCCN7C(=O)[C@H](NC(=O)OC)c7ccccc7)n6)cc5)cc4s3)cc2[nH]1)C(C)C [Compound A215]",
    "assayed_system": "H1a-luc or Zluc cells",
    "CC50": "> 75 µM"
  },
  {
    "compound": "COC(=O)N[C@H](C(=O)N1CCC[C@H]1c1ncc(-c2ccc(-c3csc4c(-c5cnc([C@@H]6CCCN6C(=O)[C@H](NC(=O)OC(C)(C)C)c6ccccc6)[nH]5)csc34)cc2)[nH]1)C(C)C [Compound A111]",
    "assayed_system": "H1a-luc or Zluc cells",
    "CC50": "> 75 µM"
  },
  {
    "compound": "COC(=O)N[C@H](C(=O)N1CCC[C@H]1c1ncc(-c2csc3c(-c4ccc5[nH]c([C@@H]6CCCN6C(=O)[C@@H](NC(=O)OC)C(C)C)nc5c4)csc23)[nH]1)C(C)C [Compound A173]",
    "assayed_system": "H1a-luc or Zluc cells",
    "CC50": "10 to 75 µM"
  },
  {
    "compound": "COC(=O)N[C@H](C(=O)N1CCCC1c1ncc(-c2cc3sc(-c4ccc(-c5cnc([C@@H]6CCCN6C(=O)[C@H](NC(=O)OC)c6ccccc6)[nH]5)cc4)cc3s2)[nH]1)C(C)C (some centres unmarked) [Compound A217]",
    "assayed_system": "H1a-luc or Zluc cells",
    "CC50": "> 75 µM"
  },
  {
    "compound": "COC(=O)N[C@H](C(=O)N1CCC[C@H]1c1ncc(-c2ccc(-c3cc4sc(-c5cnc([C@@H]6CCCN6C(=O)[C@@H](NC(=O)OC)C(C)C)[nH]5)cc4s3)cc2)[nH]1)C(C)C [Compound A126]",
    "assayed_system": "H1a-luc or Zluc cells",
    "CC50": "> 75 µM"
  },
  {
    "compound": "COC(=O)N[C@H](C(=O)N1CCC[C@H]1c1ncc(-c2ccc(-c3csc4c(-c5ccc6[nH]c([C@@H]7CCCN7C(=O)[C@H](NC(=O)OC)c7ccccc7)nc6c5)csc34)cc2)[nH]1)C(C)C [Compound A172]",
    "assayed_system": "H1a-luc or Zluc cells",
    "CC50": "> 75 µM"
  },
  {
    "compound": "COC(=O)N[C@H](C(=O)N1CCCC1c1nc(-c2cc3sc(-c4ccc(-c5cnc([C@@H]6CCCN6C(=O)[C@@H](c6ccccc6)N6CCCCC6)[nH]5)cc4)cc3o2)c[nH]1)C(C)C (some centres unmarked) [Compound A212]",
    "assayed_system": "H1a-luc or Zluc cells",
    "CC50": "10 to 75 µM"
  },
  {
    "compound": "COC(=O)N[C@H](C(=O)N1CCC[C@H]1c1nc2cc(-c3csc4c(-c5ccc(-c6cnc([C@@H]7CCCN7C(=O)[C@H](NC(=O)OC)c7ccccc7)[nH]6)cc5)csc34)ccc2[nH]1)C(C)C [Compound A169]",
    "assayed_system": "H1a-luc or Zluc cells",
    "CC50": "> 75 µM"
  },
  {
    "compound": "COC(=O)N[C@H](C(=O)N1CCCC1c1nc(-c2cc3sc(-c4cnc([C@@H]5CCCN5C(=O)[C@@H](NC(=O)OC)C(C)C)[nH]4)cc3s2)c[nH]1)C(C)C (some centres unmarked) [Compound A101]",
    "assayed_system": "H1a-luc or Zluc cells",
    "CC50": "> 75 µM"
  },
  {
    "compound": "COC(=O)N[C@H](C(=O)N1CCC[C@H]1c1ncc(-c2ccc(-c3csc4c(-c5ccc6[nH]c([C@@H]7CCCN7C(=O)[C@@H](NC(=O)OC)C(C)C)nc6c5)csc34)cc2)[nH]1)C(C)C [Compound A171]",
    "assayed_system": "H1a-luc or Zluc cells",
    "CC50": "> 75 µM"
  }
]
